system tested: full length active recombinant SYK enzyme (Homo sapiens)
Construct: full length active recombinant SYK enzyme (Millipore, Calif.)
procedure details: Inhibition of Syk tyrosine phosphorylation activity (LANCE TR-FRET kinase assay)
reported conditions: 1 nM SYK, 550 nM substrate, 100 μM ATP, 1 hour room temperature
readout label: IC50

So what does the record say about IC50 for NC(=O)c1cnc(N[C@@H]2CCCC(F)(F)[C@@H]2N)nc1Nc1cccc(-c2ncccn2)c1 ?
100 to 1000 nM

So what does the record say about IC50 for CC[C@@H](Nc1ncc(C(N)=O)c(Nc2ccc(C)cc2)n1)C1(N)CC1 ?
1 to 10 nM

So what does the record say about IC50 for NC(=O)c1cnc(N[C@H]2[C@@H](N)CCCC2(F)F)nc1Nc1cccc(-n2cccn2)c1 ?
1 to 10 nM

So what does the record say about IC50 for NC(=O)c1cnc(Nc2ccc(Cl)cc2)nc1N[C@H]1CC[C@@H](N)CC1 ?
10 to 100 nM

So what does the record say about IC50 for CC[C@@H](Nc1ncc(C(N)=O)c(Nc2csc3ncccc23)n1)C(N)=O ?
10 to 100 nM

So what does the record say about IC50 for NC(=O)c1cnc(NC2CCNC2=O)nc1Nc1cnc2ccccc2c1 (centres unmarked) ?
> 1000 nM

So what does the record say about IC50 for NC(=O)c1cnc(N[C@@H]2CCOC[C@@H]2N)nc1Nc1ccc2ncsc2c1 ?
10 to 100 nM

So what does the record say about IC50 for NC(=O)c1cnc(N[C@H](C2CC2)C2(N)CC2)nc1Nc1cc(F)cc(F)c1 ?
10 to 100 nM

====

system tested: full length active recombinant SYK enzyme (Homo sapiens, UniProt P43405)
Construct: full length active recombinant SYK enzyme (Millipore, Calif.)
procedure details: Inhibition of Syk tyrosine phosphorylation activity (LANCE TR-FRET kinase assay)
reported conditions: 1 nM SYK, 550 nM substrate, 100 μM ATP, 1 hour room temperature
readout label: IC50

Given the entry NC(=O)c1cnc(N[C@H](C2CC2)C2(N)CC2)nc1Nc1ccc(F)cc1 [Example 170] , what IC50 was observed with full length active recombinant SYK enzyme (Homo sapiens, UniProt P43405)?
100 to 1000 nM

Given the entry NC(=O)c1cnc(N[C@H](C2CC2)C2(N)CC2)nc1Nc1ccc2ncccc2c1 [Example 155] , what IC50 was observed with full length active recombinant SYK enzyme (Homo sapiens, UniProt P43405)?
1 to 10 nM

Given the entry Cc1cccc(Nc2nc(N[C@H]3CC[C@@H](N)C3)ncc2C(N)=O)c1 [Example 118] , what IC50 was observed with full length active recombinant SYK enzyme (Homo sapiens, UniProt P43405)?
100 to 1000 nM

Given the entry CC[C@@H](Nc1ncc(C(N)=O)c(Nc2cc(-n3cccn3)cc(-n3cccn3)c2)n1)C(N)=O [Example 250] , what IC50 was observed with full length active recombinant SYK enzyme (Homo sapiens, UniProt P43405)?
100 to 1000 nM

Given the entry NC(=O)c1cnc(N[C@@H]2CCCC[C@@H]2N)nc1Nc1cncc(-n2cccn2)c1 [Example 48] , what IC50 was observed with full length active recombinant SYK enzyme (Homo sapiens, UniProt P43405)?
10 to 100 nM

Given the entry Cc1cccc(Nc2nc(N[C@@H]3CC[C@@H](C(=O)N4CCC4)C[C@@H]3N)ncc2C(N)=O)c1 [Example 191] , what IC50 was observed with full length active recombinant SYK enzyme (Homo sapiens, UniProt P43405)?
1 to 10 nM

Given the entry CC[C@@H](Nc1ncc(C(N)=O)c(Nc2cccc(OC)c2)n1)C(N)=O [Example 60] , what IC50 was observed with full length active recombinant SYK enzyme (Homo sapiens, UniProt P43405)?
100 to 1000 nM

Given the entry CCn1ccc2c(Nc3nc(NC(C)C)ncc3C(N)=O)cccc21 [Example 115] , what IC50 was observed with full length active recombinant SYK enzyme (Homo sapiens, UniProt P43405)?
100 to 1000 nM

====

Below, each entry is listed with its recorded IC50.
system tested: full length active recombinant SYK enzyme (Homo sapiens)
Construct: full length active recombinant SYK enzyme (Millipore, Calif.); purchased Millipore
procedure details: Inhibition of Syk tyrosine phosphorylation activity (LANCE TR-FRET kinase assay)
Type: biochemical
reported conditions: 1 nM SYK, 550 nM substrate, 100 μM ATP, 1 hour room temperature

molecule	IC50
NC(=O)c1cnc(N[C@@H]2CCC[C@H](F)[C@@H]2N)nc1Nc1cccc(-n2nccn2)c1 [Example 235]	10 to 100 nM
NC(=O)c1cnc(N[C@@H]2CCCC[C@@H]2N)nc1Nc1ccc(Cl)c(-n2nccn2)c1	1 to 10 nM
NC(=O)c1cnc(N[C@@H]2CCCC[C@@H]2N)nc1Nc1cccc(-n2ncc(O)n2)c1	1 to 10 nM
NC(=O)c1cnc(N[C@@H]2CCCC[C@@H]2N)nc1Nc1ccc(-c2ncco2)cc1	10 to 100 nM

So what does the record say about IC50 for Cn1ncc2c(Nc3nc(N[C@H](C4CC4)C4(N)CC4)ncc3C(N)=O)cccc21 ?
1 to 10 nM

So what does the record say about IC50 for C[C@@H](Nc1ncc(C(N)=O)c(Nc2cccc3c2ccn3C)n1)C1CC1 ?
100 to 1000 nM

So what does the record say about IC50 for CC[C@@H](Nc1ncc(C(N)=O)c(Nc2ccc3ccncc3c2)n1)C(N)=O ?
10 to 100 nM

So what does the record say about IC50 for CC(C)[C@@H](Nc1ncc(C(N)=O)c(Nc2ccc3cccnc3c2)n1)C(N)=O ?
100 to 1000 nM

====

Below, each entry is listed with its recorded pIC50.
system tested: full length active recombinant SYK enzyme (Homo sapiens, UniProt P43405)
Construct: full length active recombinant SYK enzyme (Millipore, Calif.)
procedure details: Inhibition of Syk tyrosine phosphorylation activity (LANCE TR-FRET kinase assay)
reported conditions: 1 nM SYK, 550 nM substrate, 100 μM ATP, 1 hour room temperature
pIC50: −log10 of the molar value.

compound	system tested	assay value
NC(=O)c1cnc(N[C@@H]2CCOC[C@@H]2N)nc1Nc1ccccc1	full length active recombinant SYK enzyme (Homo sapiens, UniProt P43405)	6.00 to 7.00
Cn1cc(C#N)c2c(Nc3nc(N[C@@H]4CCCC[C@@H]4N)ncc3C(N)=O)cccc21	full length active recombinant SYK enzyme (Homo sapiens, UniProt P43405)	6.00 to 7.00

So what does the record say about pIC50 for Cc1cccc(Nc2nc(N[C@@H]3C[C@@H](C(N)=O)CC[C@@H]3N)ncc2C(N)=O)c1 (racemic) ?
6.00 to 7.00

So what does the record say about pIC50 for CNC(=O)[C@@H]1CC[C@@H](Nc2ncc(C(N)=O)c(Nc3cccc(C)c3)n2)[C@@H](N)C1 (racemic) ?
8.00 to 9.00

So what does the record say about pIC50 for Cc1ccc(Nc2nc(N[C@H](C)C3(N)CC3)ncc2C(N)=O)cc1 ?
7.00 to 8.00

So what does the record say about pIC50 for NC(=O)c1cnc(N[C@H](C2CC2)C2(N)CC2)nc1Nc1cccc(-n2cccn2)c1 ?
8.00 to 9.00

So what does the record say about pIC50 for NC(=O)c1cnc(N[C@@H]2CCCC(F)(F)[C@@H]2N)nc1Nc1ccc2ncsc2c1 ?
7.00 to 8.00

So what does the record say about pIC50 for NC(=O)c1cnc(N[C@H](C2CC2)C2(N)CC2)nc1Nc1cccc(-c2ncccn2)c1 ?
8.00 to 9.00

So what does the record say about pIC50 for NC(=O)c1cnc(N[C@@H]2CCCC(=O)[C@@H]2N)nc1Nc1cccc(-n2nccn2)c1 (racemic) ?
6.00 to 7.00

So what does the record say about pIC50 for NC(=O)c1cnc(N[C@H]2[C@@H](N)CCCC2(F)F)nc1Nc1cnn2ccccc12 ?
7.00 to 8.00

So what does the record say about pIC50 for NC(=O)c1cnc(N[C@H]2CCCC(F)(F)[C@H]2N)nc1Nc1cccc(-n2nccn2)c1 ?
6.00 to 7.00

So what does the record say about pIC50 for NC(=O)c1cnc(N[C@@H]2CCC[C@H](F)[C@@H]2N)nc1Nc1ccc2ncccc2c1 ?
7.00 to 8.00

So what does the record say about pIC50 for N#Cc1ccc(Nc2nc(N[C@@H]3CCOC[C@@H]3N)ncc2C(N)=O)cc1 ?
6.00 to 7.00

So what does the record say about pIC50 for NC(=O)c1cnc(N[C@H](C2CC2)C2(N)CC2)nc1Nc1ccc2scnc2c1 ?
7.00 to 8.00

So what does the record say about pIC50 for NC(=O)c1cnc(N[C@H]2CN[C@H](CO)C2)nc1Nc1cccc(-n2nccn2)c1 ?
6.00 to 7.00

So what does the record say about pIC50 for CCN1CC[C@@H](Nc2ncc(C(N)=O)c(Nc3cccc(-n4nccn4)c3)n2)C1 ?
< 6.00

So what does the record say about pIC50 for Cc1cccc(Nc2nc(N[C@@H]3CC[C@@H](C(=O)N4CCCC4)C[C@@H]3N)ncc2C(N)=O)c1 (racemic) ?
7.00 to 8.00
